- subject.of.test: GAL-mERRg (mouse ERRγ ligand binding domain fused to GAL4 DNA binding domain) (Mus musculus)
- Construct: expressed in transfected cells; host or cells: CV-1
- Sequence (P62509 233-457 limits assumed): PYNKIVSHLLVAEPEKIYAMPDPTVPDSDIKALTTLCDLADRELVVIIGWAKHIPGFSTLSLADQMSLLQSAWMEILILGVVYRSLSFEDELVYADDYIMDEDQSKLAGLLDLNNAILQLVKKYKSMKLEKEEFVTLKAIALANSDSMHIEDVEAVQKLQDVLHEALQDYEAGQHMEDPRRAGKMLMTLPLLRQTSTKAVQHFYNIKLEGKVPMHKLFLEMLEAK
- procedure.details: GAL4 reporter transactivation assay in CV-1 cells, GAL-mERRg
- Assay type: cell-based
- condition.label: CV-1; reporter 0.42:vector 0.00875:PGC-1a 0.035; 30 μM
measured.attribute: Fold activation, GAL-mERRg + PGC-1a (fold)
Give bare numbers, in fold.

Give one value of Fold activation, GAL-mERRg + PGC-1a per listed compound.
1. CCc1ccc(C=NNC(=O)c2ccc(O)cc2)s1
2. O=C(NN=Cc1ccccc1)c1ccc(O)cc1
3. Cc1cccc(C=NNC(=O)c2ccc(O)cc2)c1
4. CCN(CC)c1ccc(C=NNC(=O)c2ccc(O)cc2)cc1

Result:
[2.45, 2.46, 2.56, 3.09]

// data source = patent US9085550B2
